Species on record: Rattus norvegicus
test_summary: DrugMatrix - Regimen: Daily Repeat
Assay type: toxicity, organism-based, Sprague-Dawley
Parameters: regimen Daily Repeat, gender Male, age 6-8 weeks
measurement_parameters: in vivo, po, 0 mg/kg, 120 h, tissue Plasma, route oral GAVAGE, dose level Control, time 5 day, vehicle 100 % SALINE
recorded_metric: CREATINE PHOSPHOKINASE (u/L)

- Oc1ccccc1O [CATECHOL]: 295.83
- CC(=O)OCC(CCn1cnc2cnc(N)nc21)COC(C)=O [FAMCICLOVIR]: 489.67
- Cc1cc(CC(=O)O)n(C)c1C(=O)c1ccc(Cl)cc1 [ZOMEPIRAC]: 295.83
- CCCc1nn(C)c2c(=O)[nH]c(-c3cc(S(=O)(=O)N4CCN(C)CC4)ccc3OCC)nc12: 489.67

---

Recorded ABSOLUTE EOSINOPHIL, one value per entry.
Organism: Rattus norvegicus
test_summary: DrugMatrix - Regimen: Daily Repeat
Assay type: toxicity, organism-based, Sprague-Dawley
Design: regimen Daily Repeat, gender Male, age 6-8 weeks
measurement_parameters: in vivo, po, 0 mg/kg, 120 h, tissue Blood, route oral GAVAGE, dose level Control, time 5 day, vehicle 100 % WATER
recorded_metric: ABSOLUTE EOSINOPHIL (CELLS/uL)

• CC(C)(C)NC[C@H](O)COc1nsnc1N1CCOCC1 = 14.5
• CCOC(N)=O = 125
• Cc1c(N(C)CS(=O)(=O)[O-])c(=O)n(-c2ccccc2)n1C.[Na+] [DIPYRONE SODIUM] = 0
• O=P1(N(CCCl)CCCl)NCCCO1 (configuration not stated) [CYCLOPHOSPHAMIDE ANHYDROUS] = 31.17
• Nc1ccc(S(=O)(=O)Nc2nccs2)cc1 = 14.5
• OCCO = 0
• CN1C2CCCC1CC(NC(=O)c1nn(C)c3ccccc13)C2 (configuration not stated) = 14.5

---

Species: Rattus norvegicus
test_summary: DrugMatrix - Regimen: Daily Repeat
Format: toxicity, organism-based, Sprague-Dawley
Set-up: regimen Daily Repeat, gender Male, age 6-8 weeks
measurement_parameters: in vivo, po, 1500 mg/kg, 72 h, tissue Plasma, route oral GAVAGE, dose level High, time 3 day, vehicle .5 % CMC
This listing pairs compounds with measured LACTATE DEHYDROGENASE.
recorded_metric: LACTATE DEHYDROGENASE (u/L)

* Nc1nc2c(c(=O)[nH]1)N(C=O)C(CNc1ccc(C(=O)N[C@@H](CCC(=O)O)C(=O)O)cc1)CN2 (some centres undefined) | 116
* CC(C)(Sc1cc(C(C)(C)C)c(O)c(C(C)(C)C)c1)Sc1cc(C(C)(C)C)c(O)c(C(C)(C)C)c1 | 144
* C[C@@H](O)[C@H]1C(=O)N2C(C(=O)O)=C(S[C@@H]3CN[C@H](C(=O)N(C)C)C3)[C@H](C)[C@H]12 | 71
* CCOC(=O)[C@H](CCc1ccccc1)N[C@@H](C)C(=O)N1CCC[C@H]1C(=O)O | 90.33

---

Species on record: Rattus norvegicus
test_summary: DrugMatrix - Regimen: Daily Repeat
Type: toxicity, organism-based, Sprague-Dawley
Set-up: regimen Daily Repeat, gender Male, age 6-8 weeks
measurement_parameters: in vivo, po, 0 mg/kg, 2184 h, tissue Blood, route oral GAVAGE, dose level Control, time 91 day, vehicle .5 % CMC
Measured ABSOLUTE LYMPHOCYTE accompanies every entry in the list below.
recorded_metric: ABSOLUTE LYMPHOCYTE (cells/µL)

* O=c1cc(-c2ccccc2)oc2ccc3ccccc3c12 [BETA-NAPHTHOFLAVONE] | 8670
* Clc1cc2c(cc1Cl)Oc1cc(Cl)c(Cl)cc1O2 [2,3,7,8-TETRACHLORODIBENZO-P-DIOXIN] | 8670

Data origin: ChEMBL document CHEMBL3885881
